- Target or test system: ERα in MCF7 cells (Homo sapiens (Human), UniProt P03372)
- Sequence (P03372 whole entry): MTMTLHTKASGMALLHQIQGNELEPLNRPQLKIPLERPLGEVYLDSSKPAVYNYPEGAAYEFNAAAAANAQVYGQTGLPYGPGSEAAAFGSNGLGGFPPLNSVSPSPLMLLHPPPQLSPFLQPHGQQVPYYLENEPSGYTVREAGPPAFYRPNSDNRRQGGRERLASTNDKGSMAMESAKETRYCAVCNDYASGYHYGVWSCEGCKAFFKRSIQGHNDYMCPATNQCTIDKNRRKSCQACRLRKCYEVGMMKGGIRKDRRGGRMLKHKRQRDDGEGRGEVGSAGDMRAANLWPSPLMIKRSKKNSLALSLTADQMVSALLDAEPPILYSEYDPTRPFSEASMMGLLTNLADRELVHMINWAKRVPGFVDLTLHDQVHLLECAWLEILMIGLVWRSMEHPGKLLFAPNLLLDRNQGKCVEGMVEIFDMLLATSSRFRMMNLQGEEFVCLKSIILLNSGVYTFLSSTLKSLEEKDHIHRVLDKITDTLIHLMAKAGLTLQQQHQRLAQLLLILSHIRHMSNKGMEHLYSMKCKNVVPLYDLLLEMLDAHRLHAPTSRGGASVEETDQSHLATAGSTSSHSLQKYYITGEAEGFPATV
- Protocol description: Test C: estrogen receptor degradation activity, ERα in cell western assay in MCF7 cells
- Type: cell-based
- Run parameters: 4 hours post compound addition, ERα in cell western, read-out: Degradation IC50
Binning rule for recorded DC50: low = under 300 pM, medium = from 300 pM up to 1000 pM, high = 1000 pM and over

Some solved entries appear below for comparison.
Oc1ccc2c(c1)SCC(c1ccc3c(c1)OC(F)(F)O3)=C2c1ccc(O[C@H]2CCN(CCCF)C2)cc1 [Example 31]	medium
Cc1ccc(C2=C(c3ccc(O[C@H]4CCN(CCCF)C4)cc3)c3ccc(O)cc3S(=O)(=O)CC2)c(F)c1 [Example 230]	medium
CC(C)Oc1ccc(C2=C(c3ccc(O[C@H]4CCN(CCCF)C4)cc3)c3ccc(O)cc3OCC2)cc1F [Example 141]	high

QUERY: Just checking, what class would you give O=S1(=O)CCC(c2cccc(O)c2)=C(c2ccc(O[C@H]3CCN(CCCF)C3)cc2)c2ccc(O)cc21 [Example 228] here?
RESULT: low

QUERY: # bin label for [O-][S+]1CCC(c2ccc(OC(F)(F)F)cc2)=C(c2ccc(O[C@H]3CCN(CCCF)C3)cc2)c2ccc(O)cc21 (single isomer, unassigned) [Example 227]
RESULT: high

QUERY: Categorize the following entry: Oc1ccc2c(c1)OCCC(c1ccc(Cl)cc1Cl)=C2c1ccc(O[C@H]2CCN(CCCF)C2)cc1 [Example 102]
RESULT: high

QUERY: Field: class (DC50) — entry: Cc1ccc(C2=C(c3ccc(O[C@H]4CCN(CCCF)C4)cc3)c3ccc(OP(=O)(O)O)cc3SC2)c(F)c1 [Example 48]
RESULT: medium

QUERY: Hey, which category is CC(C)(C)c1ccc(C2=C(c3ccc(O[C@H]4CCN(CCCF)C4)cc3)c3ccc(O)cc3SCC2)cc1 [Example 216] in, do you know?
RESULT: low

QUERY: Kindly state the category for this compound: Oc1ccc2c(c1)SCC(c1ccc(OCF)cc1)=C2c1ccc(O[C@H]2CCN(CCCF)C2)cc1 [Example 60]
RESULT: low

QUERY: Which DC50 band matches Oc1ccc2c(c1)SCC(c1ccc3c(c1)CCN3)=C2c1ccc(O[C@H]2CCN(CCCF)C2)cc1 [Example 20] ?
RESULT: high

QUERY: Lab note: which band did Oc1ccc(C2Sc3cc(O)ccc3OC2c2ccc(O[C@H]3CCN(CCCF)C3)cc2)cc1 (some centres unmarked) [Example 258] land in?
RESULT: high

QUERY: Class? Entry: COc1c(C(=O)O)cccc1C1=C(c2ccc(O[C@H]3CCN(CCCF)C3)cc2)c2ccc(O)cc2OCC1 [Example 148]
RESULT: high
